Target: β-adrenoreceptor (β1) (Rattus norvegicus, UniProt P18090)
Construct: The right and left atria were then separated; from tissue; host or cells: isolated rat right atrium (spontaneously beating) and left atrium (electrically paced)
Sequence (P18090 whole entry): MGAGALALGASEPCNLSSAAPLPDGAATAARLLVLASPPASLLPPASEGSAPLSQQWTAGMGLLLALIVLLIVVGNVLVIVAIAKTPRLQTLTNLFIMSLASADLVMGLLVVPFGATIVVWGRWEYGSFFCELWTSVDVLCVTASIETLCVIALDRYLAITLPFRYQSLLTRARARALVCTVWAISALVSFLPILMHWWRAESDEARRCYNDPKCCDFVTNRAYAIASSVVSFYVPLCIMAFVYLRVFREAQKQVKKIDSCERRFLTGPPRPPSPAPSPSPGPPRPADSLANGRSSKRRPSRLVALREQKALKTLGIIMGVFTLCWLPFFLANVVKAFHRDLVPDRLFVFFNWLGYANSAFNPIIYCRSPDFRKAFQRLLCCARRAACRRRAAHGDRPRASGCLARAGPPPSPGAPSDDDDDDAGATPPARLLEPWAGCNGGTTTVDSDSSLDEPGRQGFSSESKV
Assay: Isolated right atrium, L-isoproterenol-induced heart rate increase (pA2)
Design: species or system Wistar rat
Label t when Ratio of β1 and Calcium Antagonism is strictly below 0.09; otherwise label f.

Please indicate whether the reported Ratio of β1 and Calcium Antagonism of CCOC(=O)C1=C(C)NC(C)=C(C(=O)OCC)C1c1cc(Cl)ccc1OCC(O)CNCCOc1ccccc1OC (stereo not drawn) is strictly below 0.09. f

Repeat with CCOC(=O)C1=C(C)NC(C)=C(C(=O)OCC)C1c1ccc(OCC(O)CNCCOc2ccccc2OC)c(OC)c1 (stereo not drawn) t

Repeat with CCOC(=O)C1=C(C)NC(C)=C(C(=O)OCC)C1c1cc([N+](=O)[O-])ccc1OCC(O)CNC(C)(C)C (stereo not drawn) t

Repeat with COC(=O)C1=C(C)NC(C)=C(C(=O)OC)C1c1ccc(OCC(O)CNC(C)(C)C)c(OC)c1 (stereo not drawn) f

Repeat with CCOC(=O)C1=C(C)NC(C)=C(C(=O)OCC)C1c1cc(Cl)ccc1OCC(O)CNC(C)(C)C (stereo not drawn) t

Repeat with CCOC(=O)C1=C(C)NC(C)=C(C(=O)OCC)C1c1ccc(OCC(O)CNCCOc2ccccc2OC)c(Cl)c1 (stereo not drawn) t

Repeat with CCCCNCC(O)COc1ccc(Cl)cc1C1C(C(=O)OCC)=C(C)NC(C)=C1C(=O)OCC (stereo not drawn) f

Repeat with CCOC(=O)C1=C(C)NC(C)=C(C(=O)OCC)C1c1cc([N+](=O)[O-])ccc1OCC(O)CNCCOc1ccccc1OC (stereo not drawn) t
